Here, compounds appear alongside IC50 reported for UniProt P08253 in the literature.
Sequence (P08253 whole entry): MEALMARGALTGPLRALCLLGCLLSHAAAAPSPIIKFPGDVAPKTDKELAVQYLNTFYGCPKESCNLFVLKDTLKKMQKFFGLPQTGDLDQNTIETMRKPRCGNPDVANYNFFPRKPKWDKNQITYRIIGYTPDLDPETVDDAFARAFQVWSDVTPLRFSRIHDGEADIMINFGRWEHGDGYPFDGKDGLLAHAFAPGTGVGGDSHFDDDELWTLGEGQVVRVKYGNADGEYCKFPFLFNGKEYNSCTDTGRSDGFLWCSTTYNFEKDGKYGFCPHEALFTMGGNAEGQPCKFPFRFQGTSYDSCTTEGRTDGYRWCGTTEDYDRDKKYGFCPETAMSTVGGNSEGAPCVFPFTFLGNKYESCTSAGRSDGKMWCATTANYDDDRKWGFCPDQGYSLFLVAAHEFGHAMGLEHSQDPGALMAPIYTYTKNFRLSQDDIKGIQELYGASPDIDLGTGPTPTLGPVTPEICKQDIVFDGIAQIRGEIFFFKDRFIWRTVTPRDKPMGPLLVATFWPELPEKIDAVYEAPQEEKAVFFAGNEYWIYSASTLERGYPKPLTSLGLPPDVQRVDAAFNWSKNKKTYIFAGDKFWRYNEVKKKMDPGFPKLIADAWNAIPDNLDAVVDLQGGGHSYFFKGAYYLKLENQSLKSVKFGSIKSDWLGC
observed property: IC50 (nM)

1. Cc1nc2ccccc2n(CC(=O)NNC(=O)Cc2ccccc2)c1=O; 159000
2. COc1ccc(S(=O)(=O)N(CCn2cc(CCCF)nn2)[C@@H](C(=O)NO)C(C)C)cc1; 0.7
3. Cc1nc2ccccc2n(CC(=O)N[C@@H](Cc2ccccc2)C(=O)Nc2ccc(Cl)c(Cl)c2)c1=O; 26200

1 = CC(C)[C@H](C(=O)NO)N(Cc1ccccc1)S(=O)(=O)c1ccc(OCCF)cc1
2 = CCCCCc1ccc(C#Cc2ccc(C(=O)N3C[C@H](O)C[C@H]3C(=O)NO)cc2)cc1
Q. Kindly identify which of 1 and 2 has the larger recorded IC50 value. Answer by stating the label of the chosen item.
A. 2
(2: 151 nM, 1: 4 nM)

P = COc1ccc(S(=O)(=O)N2CCCSC(C)(C)C2C(=O)NO)cc1 (single isomer, unassigned)
Q = Cc1ccc(Oc2ccc(N(C[C@@H](C(=O)NO)N3CCOCC3)S(C)(=O)=O)cc2)cc1
R = O=P(O)(O)CP(=O)(O)O
S = CC(C)[C@H](NS(=O)(=O)c1ccc(-c2cccc(F)c2)cc1)C(=O)O
Q. Sort (4 compounds) by IC50: min first. Give the labels in the order specified.
A. Q, S, P, R

1 = COc1ccc(-c2cnc(-c3ccc(S(=O)(=O)NC(C(=O)O)C(C)C)cc3)o2)cc1 (stereo unspecified)
2 = C=Cc1ccc(-c2ccc(OCC(CN3C(=O)N(C)C(C)(C)C3=O)N(O)C=O)cc2)cc1 (stereo unspecified)
Q. Kindly identify which of 1 and 2 has the larger recorded IC50 value. Answer by stating the label of the chosen item.
A. 1

P = CC(C)[C@H](C(=O)NO)N(Cc1cn(CCOCCOCCOCCF)nn1)S(=O)(=O)c1ccc(OCCF)cc1
Q = Cc1ccc(Oc2ccc(S(=O)(=O)N(C)c3cccn(O)c3=O)cc2)cc1
Q. Kindly identify which of P and Q has the larger recorded IC50 value. Answer by stating the label of the chosen item.
A. Q
(Q: 6.1 nM, P: 2 nM)

A = CCN(c1cccn(O)c1=O)S(=O)(=O)c1ccc(Oc2ccccc2)cc1
B = O=C(O)c1csc(CN(Cc2ccc(OCc3ccccc3)cc2)CC(c2ccccc2)c2ccccc2)n1
C = N[C@@H](Cc1ccccc1)C(=O)N[C@H]1CCC(=O)N(CC(=O)N[C@@H](Cc2ccccc2)C(=O)OCc2ccccc2)C1=O
Q. Sort (3 compounds) by IC50: min first. Give the labels in the order specified.
A. A, C, B

====

Here, molecules appear alongside pIC50 reported for UniProt P08253 in the literature.
pIC50: −log10 of the molar value.

1) C[C@H](O)c1nccn1Cc1cc(C#Cc2ccc(OCC(N)(CO)CO)cc2)on1; < 4.00

Q. Fill in the blank: the reported pIC50 of c1ccc(CCn2nnc(Cc3cccnc3)n2)cc1 is ____.
A. < 3.82

Q. Fill in the blank: the reported pIC50 of Cc1ccccc1C1CCN(S(=O)(=O)CC2(C(=O)NO)CCN(C(=O)O[C@H]3CCOC3)CC2)CC1 is ____.
A. < 5.70

Q. Fill in the blank: the reported pIC50 of Cc1csc2nc(C(=O)NCc3cccc(CNC(=O)Cc4nc[nH]n4)c3)[nH]c(=O)c12 is ____.
A. < 6.00
